// data source = patent US9493468B2

Each item that follows carries a reported Inf. D: Candida parapsilosis B66126, pIC50.
# System: Candida parapsilosis
# testMethodNotes: Antifungal activity in vitro, resazurin growth inhibition: Candida parapsilosis (B66126)
# Assay type: cell-based

The following molecules have reported results that may help.
{"molecule": "Fc1ccc2oc(C3NCc4c(Cl)cccc4-n4cccc43)cc2c1 (racemic)", "experimentalValue": "<4.19"}
{"molecule": "Cl.Clc1cccc2c1CNC(c1cc3ccccc3s1)c1cccn1-2 (racemic)", "experimentalValue": "<4.19"}
{"molecule": "Clc1cccc2c1CN=C(c1ccc3scc(Cl)c3c1)c1cccn1-2", "experimentalValue": "<4.19"}

Fill in: Candida parapsilosis Inf. D: Candida parapsilosis B66126, pIC50 for Cc1ccc(Cl)c2c1-n1cccc1C(c1cc3ccccc3s1)NC2.Cl (racemic) = <4.19

Fill in: Candida parapsilosis Inf. D: Candida parapsilosis B66126, pIC50 for Cc1ccc2cc(C3NCc4c(C)cccc4-n4cccc43)oc2c1.Cl (racemic) = <4.19

Fill in: Candida parapsilosis Inf. D: Candida parapsilosis B66126, pIC50 for Fc1cccc2c1CN=C(c1ccc3occ(Cl)c3c1)c1cccn1-2 = 5.00

Fill in: Candida parapsilosis Inf. D: Candida parapsilosis B66126, pIC50 for CC(C)n1ccc(C2=NCc3cccc(Cl)c3-n3cccc32)cc1=O = <4.19

Fill in: Candida parapsilosis Inf. D: Candida parapsilosis B66126, pIC50 for FC(F)(F)c1ccc(C2=NCc3c(Cl)cccc3-n3cccc32)cn1 = 6.17

Fill in: Candida parapsilosis Inf. D: Candida parapsilosis B66126, pIC50 for CCc1cc(C2=NCc3c(Cl)cccc3-n3cccc32)on1 = <4.19

Fill in: Candida parapsilosis Inf. D: Candida parapsilosis B66126, pIC50 for Fc1cccc2c1CN=C(c1cnc(Cl)c(Cl)c1)c1cccn1-2 = <4.19

Fill in: Candida parapsilosis Inf. D: Candida parapsilosis B66126, pIC50 for CCc1ccc(C2=NCc3c(ccc(Cl)c3Cl)-n3cccc32)cn1 = <4.19

Fill in: Candida parapsilosis Inf. D: Candida parapsilosis B66126, pIC50 for Clc1cccc2c1CN=C(c1ccc3ccccc3n1)c1cccn1-2 = 4.00

Fill in: Candida parapsilosis Inf. D: Candida parapsilosis B66126, pIC50 for Cc1cccc2c1CN=C(c1ccc(C(F)(F)F)nc1)c1cccn1-2 = <4.19

Fill in: Candida parapsilosis Inf. D: Candida parapsilosis B66126, pIC50 for Cl.Clc1cccc2c1CNC(c1cc3ccccc3o1)c1cccn1-2 (racemic) = 5.22

Fill in: Candida parapsilosis Inf. D: Candida parapsilosis B66126, pIC50 for COc1cccc2cc(C3=NCc4c(C)cccc4-n4cccc43)oc12 = 4.57

Fill in: Candida parapsilosis Inf. D: Candida parapsilosis B66126, pIC50 for COc1ccc2oc(C3=NCc4c(Cl)cc(Cl)cc4-n4cccc43)cc2c1 = <4.19

Fill in: Candida parapsilosis Inf. D: Candida parapsilosis B66126, pIC50 for Clc1cccc2c1CN=C(c1cc3cccc(Cl)c3o1)c1cccn1-2 = <4.19

Fill in: Candida parapsilosis Inf. D: Candida parapsilosis B66126, pIC50 for Cc1cccc2oc(C3NCc4c(Cl)cccc4-n4cccc43)cc12.Cl (racemic) = <4.19

Fill in: Candida parapsilosis Inf. D: Candida parapsilosis B66126, pIC50 for Cc1cccc2c1CN=C(c1cc3cccc(C)c3o1)c1cccn1-2 = 4.81

Fill in: Candida parapsilosis Inf. D: Candida parapsilosis B66126, pIC50 for Fc1cc(F)c2oc(C3=NCc4c(Cl)cc(Cl)cc4-n4cccc43)cc2c1 = <4.19

Fill in: Candida parapsilosis Inf. D: Candida parapsilosis B66126, pIC50 for Fc1ccc2oc(C3=NCc4ccc(Cl)cc4-n4cccc43)cc2c1 = <4.19

Fill in: Candida parapsilosis Inf. D: Candida parapsilosis B66126, pIC50 for CCn1cc(C2=NCc3c(Cl)cccc3-n3cccc32)cn1 = <4.19

Fill in: Candida parapsilosis Inf. D: Candida parapsilosis B66126, pIC50 for Cl.FC(F)(F)c1ncc(C2NCc3c(Cl)cccc3-n3cccc32)cn1 (racemic) = <4.19
